System: RARa:RXR (NR concentration 270 nM, RXRa partner concentration 90 nM)
Test method notes: PBM binding z-score (relative to random genomic background probes); higher = stronger binding; sequences stand for … in GC…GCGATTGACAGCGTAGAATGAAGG
Please assign a class to every record based on measured PBM binding z-score, with ranges bottom end (below 0.5), midrange (0.5 to below 3), top end (3 or more)

{"columns": ["Sequence string", "Qualitative label"],
 "data": [
  ["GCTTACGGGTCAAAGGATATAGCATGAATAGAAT", "top end"],
  ["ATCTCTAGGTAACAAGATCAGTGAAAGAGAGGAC", "bottom end"],
  ["TAGCCTAGGTCATGCGGGCCAGTATTGTGTCGGC", "midrange"],
  ["GCTGCTAGGTCAACTGATGGTCAGATAAAGCTCG", "top end"],
  ["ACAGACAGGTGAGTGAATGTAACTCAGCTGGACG", "bottom end"],
  ["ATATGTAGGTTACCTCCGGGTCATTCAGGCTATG", "top end"],
  ["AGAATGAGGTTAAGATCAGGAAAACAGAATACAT", "midrange"],
  ["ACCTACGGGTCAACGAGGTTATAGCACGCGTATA", "top end"],
  ["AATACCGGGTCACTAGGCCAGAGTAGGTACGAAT", "top end"]
]}

----------
System: FXR:RXRa (NR concentration 270 nM, RXRa partner concentration 90 nM)
Test method notes: PBM binding z-score (relative to random genomic background probes); higher = stronger binding; sequences stand for … in GC…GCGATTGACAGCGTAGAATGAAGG

{"columns": ["Sequence string", "PBM binding z-score"],
 "data": [
  ["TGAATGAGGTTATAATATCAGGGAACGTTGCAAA", 1.4],
  ["CCTACTGGGCTACGAAAGGTCATTGATTCAGTGA", 3.53],
  ["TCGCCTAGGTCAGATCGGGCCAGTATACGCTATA", 1.75],
  ["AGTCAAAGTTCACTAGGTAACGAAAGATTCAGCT", 5.29],
  ["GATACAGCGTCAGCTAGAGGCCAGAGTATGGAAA", -1.06],
  ["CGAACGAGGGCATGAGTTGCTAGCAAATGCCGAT", 0.106],
  ["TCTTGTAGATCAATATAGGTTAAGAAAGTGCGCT", 0.801],
  ["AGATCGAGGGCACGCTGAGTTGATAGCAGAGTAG", 0.624],
  ["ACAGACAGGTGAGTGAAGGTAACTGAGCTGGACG", 0.439],
  ["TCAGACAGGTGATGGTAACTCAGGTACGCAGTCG", 0.415],
  ["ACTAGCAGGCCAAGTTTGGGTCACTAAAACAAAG", 0.0701],
  ["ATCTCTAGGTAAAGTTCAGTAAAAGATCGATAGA", 1.06],
  ["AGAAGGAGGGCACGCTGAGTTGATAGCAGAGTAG", 0.55],
  ["ATCGAAAGGTCTAGGTGAGTATAGAGAAAGGGAA", 0.504],
  ["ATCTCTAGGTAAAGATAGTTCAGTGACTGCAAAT", 0.289],
  ["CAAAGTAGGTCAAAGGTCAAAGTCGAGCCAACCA", 8.51],
  ["ATCTCTTGGTAACAAGTTCAGTGAAAGAGAGGAC", 0.45],
  ["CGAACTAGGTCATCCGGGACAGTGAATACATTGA", 4.46],
  ["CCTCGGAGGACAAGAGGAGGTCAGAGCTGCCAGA", 0.831],
  ["CGTCCAAGGTCAAGGTCAGGGAAAGAGACTCGAA", 7.19],
  ["ACTTACGGGTCAACGAGGTTATAGCTCGCGTATA", 7.28],
  ["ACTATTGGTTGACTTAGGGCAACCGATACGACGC", 0.0585],
  ["ATATGTAGGTTACATCCGGGTCATTCCGGCTATG", 1.93],
  ["ACTTACGAGTCAACGAGGTTATAGCACGCGTATA", 0.899],
  ["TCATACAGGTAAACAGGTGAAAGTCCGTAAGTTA", 0.989],
  ["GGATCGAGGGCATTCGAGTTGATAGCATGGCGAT", 0.788]
]}
